Experiment: Oral bioavailability in Sprague-Dawley rat at 20 mg/kg measured upto 24 hrs by LC-MS/MS analysis
Type: ADME, organism-based
Settings: in vivo
Endpoint label: bioavailability (%)

Structure notation: O=C(NCc1ccc(Br)nc1)c1ccc([N+](=O)[O-])o1
Assay result: 4.2

---

Reported half-life at 1 µM values for a set of compounds
Assay: Metabolic stability in mouse liver microsomes assessed as half life at 1 uM incubated for 45 mins in presence of NADPH by LC-MS/MS analysis
Type: ADME, Microsome

Structure notation: O=[N+]([O-])c1ccc(COc2ccc([N+](=O)[O-])c(Br)c2)o1
half-life at 1 µM: 21.3 min
--
Structure notation: O=C(NCc1ccc(Br)nc1)c1ccc([N+](=O)[O-])o1
half-life at 1 µM: 25.1 min

---

As shown below, each of these compounds has a reported LD50 at 168 h value.
Assay: Acute toxicity in po dosed ICR mouse assessed as animal death measured after 7 days
Format: organism-based
Settings: in vivo, time 7 day

Structure notation: O=[N+]([O-])c1ccc(COc2ccc([N+](=O)[O-])c(Br)c2)o1
LD50 at 168 h: > 2590 mg/kg
//
Structure notation: O=C(NCc1ccc(Br)nc1)c1ccc([N+](=O)[O-])o1
LD50 at 168 h: 2400 mg/kg
//
Structure notation: O=C1CCCC(=O)C1C(=O)c1ccc(C(F)(F)F)cc1[N+](=O)[O-]
LD50 at 168 h: 1610 mg/kg

---

Listed below: mortality at 168 h values for each entry.
Experiment: Acute toxicity in ICR mouse assessed as death rate at 2592 mg/kg, po measured after 7 days
Format: organism-based
Settings: in vivo, time 7 day, read-out: Activity

Structure notation: O=C(NCc1ccc(Br)nc1)c1ccc([N+](=O)[O-])o1
mortality at 168 h, %: 70
--
Structure notation: O=C1CCCC(=O)C1C(=O)c1ccc(C(F)(F)F)cc1[N+](=O)[O-]
mortality at 168 h, %: 90

---

Listed next: entries and their corresponding MIC50.
System: Staphylococcus aureus
Assay: Antibacterial activity against Staphylococcus aureus ATCC 6538 assessed as bacterial growth inhibition incubated for 48 hrs by broth dilution susceptibility test
Assay type: functional

Molecule: O=[N+]([O-])c1ccc(COc2ccc([N+](=O)[O-])c(C(F)(F)F)c2)o1
MIC50: 64 µg/mL

Molecule: O=C1CCCC(=O)C1C(=O)c1ccc(C(F)(F)F)cc1[N+](=O)[O-] [NITISINONE]
MIC50: > 64 µg/mL

Molecule: O=C(OCc1ccc([N+](=O)[O-])o1)c1ccc(C(F)(F)F)cc1[N+](=O)[O-]
MIC50: > 64 µg/mL

Molecule: O=[N+]([O-])c1ccc(COc2ccc([N+](=O)[O-])c(Br)c2)o1
MIC50: 64 µg/mL

Molecule: O=C(OCc1ccc([N+](=O)[O-])o1)c1ccc([N+](=O)[O-])c(Br)c1
MIC50: > 64 µg/mL

Molecule: O=C(NCc1ccc(Br)nc1)c1ccc([N+](=O)[O-])o1
MIC50: > 64 µg/mL

---

Assay: Cytotoxicity against human L02 cells assessed as inhibition of cell growth incubated for 48 hrs by CCK-8 assay
Format: toxicity, cell-based

Structure notation: O=C(OCc1ccc([N+](=O)[O-])o1)c1ccc(C(F)(F)F)cc1[N+](=O)[O-]
IC50 at 48 h / µM: 81

Structure notation: O=[N+]([O-])c1ccc(COc2ccc([N+](=O)[O-])c(C(F)(F)F)c2)o1
IC50 at 48 h / µM: 21

Structure notation: O=[N+]([O-])c1ccc(COc2ccc([N+](=O)[O-])c(Br)c2)o1
IC50 at 48 h / µM: 60

Structure notation: O=C1CCCC(=O)C1C(=O)c1ccc(C(F)(F)F)cc1[N+](=O)[O-]
IC50 at 48 h / µM: 104

Structure notation: O=C(OCc1ccc([N+](=O)[O-])o1)c1ccc([N+](=O)[O-])c(Br)c1
IC50 at 48 h / µM: 175

Structure notation: O=C(NCc1ccc(Br)nc1)c1ccc([N+](=O)[O-])o1
IC50 at 48 h / µM: 16
